Recorded values, source the Human Domainome abundance scans (Beltran et al. 2025).

B1: Membrane-associated guanylate kinase, WW and PDZ domain-containing protein 3, residues 287 to 329; numbered along this chain, Q5TCQ9 (parent)
chain: MRDETLEPLPKNWEMAYTDTGMIYFIDHNTKTTTWLDPRLCKK

- Variants of: B1
- protocol-text: abundance fitness (aPCA) (normalised: wild type 0, dead -1); higher = more abundant; growth selection in yeast, the domain comes from the species named
- run-conditions: Homo sapiens
# maps each entry to its abundance fitness
quantity-measured: abundance fitness

I23E | 0.028
H28D | -0.53
T30Q | -0.139
R39P | -0.516
F25C | -0.774
L36D | -0.183
T33E | -0.442
Y24S | -0.708
W35V | -0.291
Y24T | -0.638
H28Q | -0.306
P38W | -0.963
L36C | -0.099
L36I | -0.07
D27S | -0.644
K43P | 0.042
L36V | -0.019
D27N | -0.238
C41E | 0.038
K31V | -0.385
P38K | -0.994
Y24R | -0.598
D27M | -0.766
K43N | -0.062
D27P | -1.12
R39F | -0.635
D27F | -0.716
T32L | -0.152
K42E | 0.056
L40E | 0.022
P38N | -1.04
R39D | -0.317
I23T | -0.006
F25K | -0.68
K43E | 0.031
P38A | -0.899
T34A | -0.632
P38C | -1.12
T33C | -0.142
C41S | 0.034
K42W | -0.115
F25T | -0.662
K43L | -0.011
R39Q | -0.417
L40P | -0.118
K42H | -0.081
D37Q | -0.486
K31H | 0.018
K42Y | -0.223
L40V | 0
T33Y | -0.447
K43S | 0.002
I26G | -0.657
Y24C | -0.652
R39G | -0.314
F25H | -0.421
K43A | 0.011
T33Q | -0.417
K42Q | -0.056
T32P | -0.879
L36Q | -0.03
T33W | -0.445
T33I | -0.519
W35T | -0.104
D37M | -1.02
T33K | -0.388
T34E | -0.677
Y24H | -0.574
D37N | -0.235
I23V | 0.03
T34N | -0.661
W35D | -0.359
H28L | -0.379
W35R | -0.266
T34C | -0.64
I23G | -0.087
T32K | -0.303
D27L | -1.11
P38M | -0.83
K43G | 0.03
N29R | -0.078
Y24D | -0.524
D37W | -0.616
L40M | -0.069
T33P | -0.684
K42M | -0.1
Y24G | -0.774
L40C | -0.033
D37Y | -0.731
W35H | -0.447
R39K | -0.309
